Record set: IC50 | Tyrosine-protein kinase receptor UFO (Homo sapiens, UniProt P30530) | literature, multiple sources.

Lookup: So what's the measured IC50 for this one? C[C@@H](CC(F)(F)F)Nc1ncc2c(-c3cnn(CCS(C)(=O)=O)c3)cc([C@H]3CC[C@H](O)CC3)n2n1
Found: ≤ 100 nM

Others:
Lookup: So what's the measured IC50 for this one? Nc1ncc(-c2cnn(C3CCCCC3)c2)cc1-c1nnc(-c2c(Cl)cccc2Cl)o1
Found: > 10000 nM

Lookup: So what's the measured IC50 for this one? COC[C@H](C)Nc1ncc2c(-c3ccc(C(=O)N4CCN(C)CC4)nc3)cc([C@H]3CC[C@H](O)CC3)n2n1
Found: 100 to 1000 nM

Lookup: So what's the measured IC50 for this one? OC1CCC(c2cc(-c3ccnc(N4CCOCC4)c3)c3cnc(NC4CCOC4)nn23)CC1 (centres unmarked)
Found: ≤ 100 nM

Lookup: So what's the measured IC50 for this one? CCCC(C)Nc1ncc2c(OC3CCOCC3)ncc([C@H]3CC[C@H](N(C)C)CC3)c2n1 (some centres unmarked)
Found: 100 to 1000 nM
